# System: CYP1A2
# PROTOCOL: CYP induction (enzyme activity) in cryopreserved human hepatocytes, CYP1A2
# EXPERIMENTAL_PARAMETERS: human, plated cryopreserved human hepatocytes, Fold Induction, donor two, 1.5 µM
REPORTED_PROPERTY: fold induction at 72 h, 1.5 µM

So for C[C@]12CC[C@@H]3c4ccc(B(O)O)cc4C[C@@H](CCCCCCCCC[S+]([O-])CCCC(F)(F)C(F)(F)F)[C@H]3[C@@H]1CC[C@@H]2O (stereo partly shown) , the logged fold induction at 72 h, 1.5 µM turned out to be 2.17

* * *

# PROTOCOL: 7-day repeated-dose TK in dogs
# Format: in vivo
# EXPERIMENTAL_PARAMETERS: female, beagle, dog, plasma, po, 200 mg/kg/day, day 1, PO 200 mg/kg/day, F
REPORTED_PROPERTY: AUC(0-t)

So for C[C@]12CC[C@@H]3c4ccc(B(O)O)cc4C[C@@H](CCCCCCCCC[S+]([O-])CCCC(F)(F)C(F)(F)F)[C@H]3[C@@H]1CC[C@@H]2O (stereo partly shown) , the logged AUC(0-t) turned out to be 9780 ng·h/mL
